Value source: patent US7118895B2

# Test system: Crude diglycosidase
# assay-overview: Examination of pH in the conversion into isoflavone aglycons by diglycosidase using soybean materials
# Assay type: biochemical, Penicillium multicolor IAM7153
# measurement-conditions: pH2, heat treatment of enzyme no, reaction time 1 h, 55° C.
# Description: A substrate solution of 450 μL was prepared by suspending 50 mg of each soybean material (roasted soy flour (manufactured by Fuji Shokuryo K.K.), soymilk (manufactured by Gitoh Shokuhin K.K.), defatted soybean (manufactured by Fuji Seiyu K.K.), concentrated soybean protein (manufactured by Fuji Seiyu K.K.)), and adjusting the pH to 2 to 11 with hydrochloric acid or sodium hydroxide. […]
parameter-measured: Decomposition efficiency of daidzin family in roasted soy flour
Kindly provide the number alone.

Reference set (2 entries):
>>> print(df.to_string())
                    structure_smiles_string  obs_value
0  CC(=O)OC[C@H]1O[C@@H](Oc2ccc3c(=O)c(-c4ccc(O)cc4)coc3c2)[C@H](O)[C@@H](O)[C@@H]1O       46.9
1         O=c1c(-c2ccc(O)cc2)coc2cc(O)ccc12        5.4

-- ask Reported Decomposition efficiency of daidzin family in roasted soy flour for O=c1c(-c2ccc(O)cc2)coc2cc(O[C@@H]3O[C@H](CO)[C@@H](O)[C@H](O)[C@H]3O)ccc12 : what is it?
-- reply 47.6
